# assay_notes: Plasma clearance in rat at 2 mg/kg, iv measured after 24 hrs by LC/MS method
# Assay type: ADME, organism-based
experimental_readout: clearance (mL/min/kg)
Please give a number only; it is taken to be in mL/min/kg.

Query: Request the reported clearance associated with COC(=O)N[C@H](C(=O)N1CCC[C@H]1c1ncc(-c2cc(F)c3c(c2)OC(c2ccc(C4CC4)s2)n2c-3cc3cc(-c4cnc([C@@H]5CCCN5C(=O)[C@@H](NC(=O)OC)C(C)C)[nH]4)ccc32)[nH]1)C(C)C (stereo not given in full)
Response: 11

Query: # get_value(readout='clearance', item= "CCc1ccc([C@@H]2Oc3cc(-c4cnc([C@@H]5CCCN5C(=O)[C@@H](NC(=O)OC)C(C)C)[nH]4)cc(F)c3-c3cc4cc(-c5cnc([C@@H]6CCCN6C(=O)[C@@H](NC(=O)OC)C(C)C)[nH]5)ccc4n32)s1" )
Response: 8

Query: Given the compound COC(=O)N[C@H](C(=O)N1CCC[C@H]1c1ncc(-c2cc(F)c3c(c2)OC(c2cnc(C4CC4)s2)n2c-3cc3cc(-c4cnc([C@@H]5C[C@H]6C[C@H]6N5C(=O)[C@@H](NC(=O)OC)C(C)C)[nH]4)ccc32)[nH]1)C(C)C (stereo not given in full) , what is its reported clearance?
Response: 12

Query: Entry CCCc1ncc(C2Oc3cc(-c4cnc([C@@H]5CCCN5C(=O)[C@@H](NC(=O)OC)C(C)C)[nH]4)cc(F)c3-c3cc4cc(-c5cnc([C@@H]6CCCN6C(=O)[C@@H](NC(=O)OC)C(C)C)[nH]5)ccc4n32)s1 (stereo not given in full) has what clearance?
Response: 16

Query: I would be grateful if you could share the reported clearance for COC(=O)N[C@H](C(=O)N1CCC[C@H]1c1ncc(-c2cc(F)c3c(c2)O[C@@H](c2cnc(C4CC4)s2)n2c-3cc3cc(-c4cnc([C@@H]5CCCN5C(=O)[C@@H](NC(=O)OC)C(C)C)[nH]4)ccc32)[nH]1)C(C)C [RUZASVIR] .
Response: 13

====

Task for the reader: assign each of the following molecules its reported Selectivity ratio.
# assay_notes: Selectivity ratio for EC90 for HCV genotype-2b NS5A harboring methionine at position 31 to EC90 for HCV genotype-1a NS5A
API doc: respond with a numeric literal and nothing else, no unit.

Query: GET /values?readout=Selectivity ratio&item= "CCOc1cccc([C@@H]2Oc3cc(-c4cnc([C@@H]5CCCN5C(=O)[C@@H](NC(=O)OC)C(C)C)[nH]4)cc(F)c3-c3cc4cc(-c5cnc([C@@H]6CCCN6C(=O)[C@@H](NC(=O)OC)C(C)C)[nH]5)ccc4n32)c1"
Response: 800

Query: Requested read-out: Selectivity ratio. Entry: "CCc1ccc([C@@H]2Oc3cc(-c4cnc([C@@H]5CCCN5C(=O)[C@@H](NC(=O)OC)C(C)C)[nH]4)ccc3-c3cc4cc(-c5cnc([C@@H]6CCCN6C(=O)[C@@H](NC(=O)OC)C(C)C)[nH]5)ccc4n32)s1"
Response: 50

Query: For the molecule shown here, COC(=O)N[C@H](C(=O)N1CCC[C@H]1c1ncc(-c2ccc3c(c2)OC(c2ccc(C4CC4)s2)n2c-3cc3cc(-c4cnc([C@@H]5CCCN5C(=O)[C@@H](NC(=O)OC)C(C)C)[nH]4)ccc32)[nH]1)C(C)C (some centres not stated) , give the reported Selectivity ratio.
Response: 117

Query: If you can, please state the reported Selectivity ratio value of "COC(=O)N[C@H](C(=O)N1CCC[C@H]1c1ncc(-c2ccc3c(c2)O[C@@H](c2ccc(C4CC4)cc2)n2c-3cc3cc(-c4cnc([C@@H]5CCCN5C(=O)[C@@H](NC(=O)OC)C(C)C)[nH]4)ccc32)[nH]1)C(C)C" .
Response: 300

Query: Item under review: COC(=O)N[C@H](C(=O)N1CCC[C@H]1c1ncc(-c2cc(F)c3c(c2)OC(c2cccs2)n2c-3cc3cc(-c4cnc([C@@H]5CCCN5C(=O)[C@@H](NC(=O)OC)C(C)C)[nH]4)ccc32)[nH]1)C(C)C (mixture of isomers) . Reported Selectivity ratio?
Response: 267

Query: Please give the measured Selectivity ratio for this molecule: "COC(=O)N[C@H](C(=O)N1CCC[C@H]1c1ncc(-c2cc(F)c3c(c2)O[C@@H](c2cnc(C4CC4)s2)n2c-3cc3cc(-c4cnc([C@@H]5CCCN5C(=O)[C@@H](NC(=O)OC)C(C)C)[nH]4)ccc32)[nH]1)C(C)C"
Response: 12

Query: Any idea what Selectivity ratio was measured for COC(=O)N[C@H](C(=O)N1CCC[C@H]1c1ncc(-c2ccc3c(c2)OC(c2ccc(Cl)s2)n2c-3cc3cc(-c4cnc([C@@H]5CCCN5C(=O)[C@@H](NC(=O)OC)C(C)C)[nH]4)ccc32)[nH]1)C(C)C (mixture of isomers) ?
Response: 50

Query: Returns the measured Selectivity ratio for the input molecule. Input: "COC(=O)N[C@H](C(=O)N1CCC[C@H]1c1ncc(-c2cc(F)c3c(c2)O[C@@H](c2ccc4c(c2)OCCC4)n2c-3cc3cc(-c4cnc([C@@H]5CCCN5C(=O)[C@@H](NC(=O)OC)C(C)C)[nH]4)ccc32)[nH]1)C(C)C"
Response: 100

Query: Request the reported Selectivity ratio associated with CCCc1ncc(C2Oc3cc(-c4cnc([C@@H]5CCCN5C(=O)[C@@H](NC(=O)OC)C(C)C)[nH]4)cc(F)c3-c3cc4cc(-c5cnc([C@@H]6CCCN6C(=O)[C@@H](NC(=O)OC)C(C)C)[nH]5)ccc4n32)s1 (some centres not stated)
Response: 140

Query: For "CCc1ccc([C@@H]2Oc3cc(-c4cnc([C@@H]5CCCN5C(=O)[C@@H](NC(=O)OC)C(C)C)[nH]4)cc(F)c3-c3cc4cc(-c5cnc([C@@H]6CCCN6C(=O)[C@@H](NC(=O)OC)C(C)C)[nH]5)ccc4n32)s1" , what is its reported Selectivity ratio?
Response: 300

Query: Quick one: Selectivity ratio for "CCOc1cccc([C@@H]2Oc3cc(-c4cnc([C@@H]5CCCN5C(=O)[C@@H](NC(=O)OC)C(C)C)[nH]4)ccc3-c3cc4cc(-c5cnc([C@@H]6CCCN6C(=O)[C@@H](NC(=O)OC)C(C)C)[nH]5)ccc4n32)c1" ?
Response: 1100
